Entries and their Trimeric HA Binding: RLU
# TARGET DESC: recombinant soluble homotrimeric HA of A/chicken/Vietnam/NCVD-016/08 (H5N1) (Influenza A virus A/chicken/Vietnam/NCVD-016/2008(H5N1))
# PROCEDURE DETAILS: trimeric HA microarray, transfection supernatant set 4
# TEST CONDITIONS: remark: other sources report otherwise
Expressed in RLU, but write only the number.

# BINDER, RECORDED MEASUREMENT
data = [
    ("TCN-536 (5095_N01) (antibody, V domains shown) VH: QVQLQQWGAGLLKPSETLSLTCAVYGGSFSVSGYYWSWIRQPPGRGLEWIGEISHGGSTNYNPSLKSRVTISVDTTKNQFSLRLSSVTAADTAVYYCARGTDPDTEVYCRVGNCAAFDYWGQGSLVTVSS VL: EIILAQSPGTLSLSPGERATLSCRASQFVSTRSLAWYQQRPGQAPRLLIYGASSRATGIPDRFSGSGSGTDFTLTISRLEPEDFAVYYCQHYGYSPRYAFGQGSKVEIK", 19),
]

Shifting focus to the binder that follows.
Form: binder = TCN-534 (5249_B02) (antibody, V domains shown) VH: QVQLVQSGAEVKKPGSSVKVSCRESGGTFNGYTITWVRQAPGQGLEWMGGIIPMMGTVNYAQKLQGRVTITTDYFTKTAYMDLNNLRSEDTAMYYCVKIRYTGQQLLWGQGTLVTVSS VL: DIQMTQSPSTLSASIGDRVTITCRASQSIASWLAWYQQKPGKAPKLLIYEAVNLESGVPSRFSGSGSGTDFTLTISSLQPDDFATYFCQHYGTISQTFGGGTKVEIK ; Trimeric HA Binding: RLU = 11400
